Numbers sourced from patent US20230265151A1.

# TESTED_SYSTEM: human GLP-1 receptor (human, UniProt P43220 24-463)
# PROTOCOL_DESCRIPTION: cell-based or functional assay
*1 amine or outer side, *2 acyl side, *3 side chain or, on linkers, in order; H or OH if unused. Where no end group is shown, it is not given here. Side-chain parts run from the residue outwards. [ ]: non-standard residue; d: D form. The star is where a group is joined. Decanoyl(10-(4-HOOC-PhO)) = O=C(O)c1ccc(OCCCCCCCCCC(=O)*)cc1; αMePhe(2-F) = C[C@](N)(Cc1ccccc1F)C(=O)O; γGlu = O=C(O)[C@H](CCC(=O)[*:2])N[*:1]; αMeY = C[C@](N)(Cc1ccc(O)cc1)C(=O)O; αMeL = CC(C)C[C@](C)(N)C(=O)O; Nle = CCCC[C@H](N)C(=O)O; Orn = NCCC[C@H](N)C(=O)O; AEEA = NCCOCCOCC(=O)O; Aib = CC(C)(N)C(=O)O
Classification field: Y = cAMP EC50 (1.0% HSA) at or over 0.05 µM; N = cAMP EC50 (1.0% HSA) under 0.05 µM.

BINDER: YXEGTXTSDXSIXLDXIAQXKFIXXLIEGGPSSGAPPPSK (Y-Aib-EGT-αMeF(2F)-TSD-OMeY-SI-αMeL-LD-Orn-IAQ-Aib-K((2-[2-(2-Amino-ethoxy)-ethoxy]-acetyl)2-(γ-Glu)-CO-(CH2)12-CO2H)FI-(D-Glu)-αMeY-LIEGGPSSGAPPPSK((2-[2-(2-Amino-ethoxy)-ethoxyl-acetyl)2-(γ-Glu)-CO-(CH2)12-CO2H)-NH2) [Example 264]
LABEL: Y
//
BINDER: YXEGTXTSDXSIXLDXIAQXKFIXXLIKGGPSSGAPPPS (Y-Aib-EGT-αMeF(2F)-TSD-2Nal-SI-αMeL-LD-Orn-IAQ-Aib-K((2-[2-(2-Amino-ethoxy)-ethoxy]-acetyl)2-(γ-Glu)-(10-(4-carboxyphenoxy)decanoyl))FI-(D-Glu)-αMeY-LIK((2-[2-(2-Amino-ethoxy)-ethoxy]-acetyl)2-(γ-Glu)-(10-(4-carboxyphenoxy)decanoyl))GGPSSGAPPPS-NH2) [Example 284]
LABEL: Y
//
BINDER: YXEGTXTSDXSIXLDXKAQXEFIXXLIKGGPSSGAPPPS (Y-Aib-EGT-αMeF(2F)-TSD-OMeY-SI-αMeL-LD-Orn-K((2-[2-(2-Amino-ethoxy)-ethoxy]-acetyl)2-(γ-Glu)-(10-(4-carboxyphenoxy)decanoyl))AQ-Aib-EFI-(D-Glu)-αMeY-LIK((2-[2-(2-Amino-ethoxy)-ethoxy]-acetyl)2-(γ-Glu)-(10-(4-carboxyphenoxy)decanoyl))GGPSSGAPPPS-NH2) [Example 278]
LABEL: N
//
BINDER: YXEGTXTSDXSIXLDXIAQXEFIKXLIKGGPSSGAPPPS (Y-Aib-EGT-αMeF(2F)-TSD-4Pa1-SI-αMeL-LD-Orn-IAQ-Aib-EFIK((2-[2-(2-Amino-ethoxy)-ethoxy]-acetyl)2-(γ-Glu)-(10-(4-carboxyphenoxy)decanoyl))-αMeY-LIK((2-[2-(2-Amino-ethoxy)-ethoxy]-acetyl)2-(γ-Glu)-(10-(4-carboxyphenoxy)decanoyl))GGPSSGAPPPS-NH2) [Example 274]
LABEL: N
//
BINDER: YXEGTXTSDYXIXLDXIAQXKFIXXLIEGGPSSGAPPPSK (Y-Aib-EGT-aMeF(2F)-TSDY-Aib-I-aMeL-LD-Orn-IAQ-Aib-K((2-[2-(2-Amino-ethoxy)-ethoxy]-acetyl)2-(γ-Glu)-CO-(CH2)12-CO2H)FI-(D-Glu)-αMeY-LIEGGPSSGAPPPSK((2-[2-(2-Amino-ethoxy)-ethoxy]-acetyl)2-(γ-Glu)-CO-(CH2)12-CO2H)-NH2) [Example 235]
LABEL: Y
//
BINDER: Y[Aib]EGT[αMePhe(2-F)]TSD[Nle]SI[αMeL]LD[Orn]IAQ[Aib]EFIK([AEEA-AEEA-γGlu-Decanoyl(10-(4-HOOC-PhO))])[αMeY]LIK([AEEA-AEEA-γGlu-Decanoyl(10-(4-HOOC-PhO))])GGPSSGAPPPS-NH2 [Example 314]
LABEL: N
//
BINDER: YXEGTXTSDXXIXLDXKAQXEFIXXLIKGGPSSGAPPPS (Y-Aib-EGT-αMeF(2F)-TSD-4Pal-Aib-I-αMeL-LD-Orn-K((2-[2-(2-Amino-ethoxy)-ethoxy]-acetyl)-(γ-Glu)-CO-(CH2)12-CO2H)AQ-Aib-EFI-(D-Glu)-αMeY-LIK((2-[2-(2-Amino-ethoxy)-ethoxy]-acetyl)-(γ-Glu)-CO-(CH2)12-CO2H)GGPSSGAPPPS-NH2) [Example 337]
LABEL: Y
//
BINDER: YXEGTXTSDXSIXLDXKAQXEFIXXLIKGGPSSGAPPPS (Y-Aib-EGT-αMeF(2F)-TSD-hTyr-SI-αMeL-LD-Orn-K((2-[2-(2-Amino-ethoxy)-ethoxy]-acetyl)2-(γ-Glu)-CO-(CH2)10-CH3)AQ-Aib-EFI-(D-Glu)-αMeY-LIK((2-[2-(2-Amino-ethoxy)-ethoxy]-acetyl)2-(γ-Glu)-CO-(CH2)10-CH3)GGPSSGAPPPS-NH2) [Example 335]
LABEL: N
//
BINDER: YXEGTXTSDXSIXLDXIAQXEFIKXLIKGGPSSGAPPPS (Y-Aib-EGT-αMeF(2F)-TSD-4Pal-SI-αMeL-LD-Orn-IAQ-Aib-EFIK(2-[2-(2-Amino-ethoxy)-ethoxy]-acetyl)2-(γ-Glu)-(11-(4-carboxyphenoxy)undecanoyl)-αMeY-LIK((2-[2-(2-Amino-ethoxy)-ethoxy]-acetyl)2-(γ-Glu)-(11-(4-carboxyphenoxy)undecanoyl)GGPSSGAPPPS-NH2)) [Example 286]
LABEL: N
//
BINDER: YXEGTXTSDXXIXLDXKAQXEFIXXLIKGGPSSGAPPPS (Y-Aib-EGT-αMeF(2F)-TSD-4Pal-Aib-I-αMeL-LD-Orn-K((2-[2-(2-Amino-ethoxy)-ethoxy]-acetyl)2-(γ-Glu)-CO-(CH2)10-CH3)AQ-Aib-EFI-(D-Glu)-αMeY-LIK((2-[2-(2-Amino-ethoxy)-ethoxy]-acetyl)2-(γ-Glu)-CO-(CH2)10-CH3)GGPSSGAPPPS-NH2) [Example 334]
LABEL: N
//
BINDER: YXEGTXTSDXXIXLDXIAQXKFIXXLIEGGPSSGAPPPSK (Y-Aib-EGT-αMeF(2F)-TSD-4Pal-Aib-I-αMeL-LD-Orn-IAQ-Aib-K((2-[2-(2-Amino-ethoxy)-ethoxy]-acetyl)2-(γ-Glu)-(10-(4-carboxyphenoxy)decanoyl))FI-(D-Glu)-αMeY-LIEGGPSSGAPPPSK((2-[2-(2-Amino-ethoxy)-ethoxy]-acetyl)2-(γ-Glu)-(10-(4-carboxyphenoxy)decanoyl))-NH2) [Example 248]
LABEL: Y
//
BINDER: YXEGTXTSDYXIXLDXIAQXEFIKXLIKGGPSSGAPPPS (Y-Aib-EGT-αMeF(2F)-TSDY-Aib-I-αMeL-LD-Orn-IAQ-Aib-EFIK(2-[2-(2-Amino-ethoxy)-ethoxy]-acetyl)3-(γ-Glu)-(10-(4-carboxyphenoxy)decanoyl)-αMeY-LIK((2-[2-(2-Amino-ethoxy)-ethoxy]-acetyl)3-(γ-Glu)-(10-(4-carboxyphenoxy)decanoyl)GGPSSGAPPPS-NH2)) [Example 346]
LABEL: N
//
BINDER: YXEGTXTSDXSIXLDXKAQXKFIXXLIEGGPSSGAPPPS (Y-Aib-EGT-αMeF(2F)-TSD-hTyr-SI-αMeL-LD-Orn-K((2-[2-(2-Amino-ethoxy)-ethoxy]-acetyl)2-(y-Glu)-(10-(4-carboxyphenoxy)decanoyl))AQ-Aib-K((2-[2-(2-Amino-ethoxy)-ethoxy]-acetyl)2-(γ-Glu)-(10-(4-carboxyphenoxy)decanoyl))FI-(D-Glu)-αMeY-LIEGGPSSGAPPPS-NH2) [Example 320]
LABEL: N
